These measurements were taken from ChEMBL document CHEMBL4251615.

system: U-251; experiment: Growth inhibition of human U251 cells assessed as cell growth at 10 uM incubated for 48 hrs by sulforhodamine B assay relative to control; type: functional; conditions: U-251, 48 h, read-out: Activity
Please provide measured growth at 10 µM for the entries that follow.
One number for each entry, in %.

Smiles String: CCOC(=O)c1c(C)oc2ncnc(Nc3ccc(F)c(Cl)c3)c12
Target Or System: U-251
growth at 10 µM (%): 91.8

Smiles String: CCOC(=O)c1c(C)oc2ncnc(Nc3cccc(F)c3)c12
Target Or System: U-251
growth at 10 µM (%): 106

Smiles String: CCOC(=O)c1c(C)oc2ncnc(Nc3ccc(F)cc3)c12
Target Or System: U-251
growth at 10 µM (%): 98

Provide each entry's growth at 10 µM from the list below.
1. CCOC(=O)c1c(C)oc2ncnc(Nc3ccc(OCc4cccc(C)c4)cc3)c12
2. Cc1cccc(Nc2ncnc3oc(C)c(C(=O)NCCO)c23)c1
3. CCOC(=O)c1c(C)oc2ncnc(Nc3ccc(OCc4ccc(Cl)c(Cl)c4)cc3)c12
4. CCOC(=O)c1c(C)oc2ncnc(Nc3ccc(OCc4cccc(F)c4)cc3)c12
5. CCCNC(=O)c1c(C)oc2ncnc(Nc3cccc(Cl)c3)c12
6. Cc1oc2ncnc(Nc3cccc(Cl)c3)c2c1CO
7. Cc1cccc(Nc2ncnc3oc(C)c(C(=O)NCCN4CCOCC4)c23)c1

[reply]
1: 96.4; 2: 105; 3: 104; 4: 96.1; 5: 90.9; 6: 92.3; 7: 105

[ask] For "CCOC(=O)c1c(C)oc2ncnc(Nc3ccc(OCc4ccc(Cl)cc4)cc3)c12" , what is its reported growth at 10 µM?
[reply] 107

---

system: UO-31; assay: Growth inhibition of human UO31 cells assessed as cell growth at 10 uM incubated for 48 hrs by sulforhodamine B assay relative to control; assay type: functional; settings: UO-31, 48 h, read-out: Activity
Please provide measured growth at 10 µM for the entries that follow.
One number for each entry, in %.

Worked cases, growth at 10 µM given:
Smiles String: CCOC(=O)c1c(C)oc2ncnc(Nc3ccc(OCc4ccc(Cl)c(Cl)c4)cc3)c12
growth at 10 µM [%]: 98.4
--
Smiles String: Cc1oc2ncnc(Nc3cccc(F)c3)c2c1C(=O)NCCO
growth at 10 µM [%]: 96.5
--
Smiles String: Cc1oc2ncnc(Nc3ccccc3)c2c1C(=O)NCCO
growth at 10 µM [%]: 87.7

Kindly review the next compound as well.
[ask] For "Cc1oc2ncnc(Nc3cccc(F)c3)c2c1C(=O)O" , what is its reported growth at 10 µM?
[reply] 92.7

---

system: K562; experiment: Growth inhibition of human K562 cells assessed as cell growth at 10 uM incubated for 48 hrs by sulforhodamine B assay relative to control; format: functional; conditions: K562, 48 h, read-out: Activity
Measure: growth at 10 µM
Answer with the value and then the unit.

Smiles String: CCOC(=O)c1c(C)oc2ncnc(Nc3ccc(F)c(Cl)c3)c12
Result: 93.8%
//
Smiles String: Cc1oc2ncnc(Nc3cccc(F)c3)c2c1C(=O)O
Result: 98.5%
//
Smiles String: CCOC(=O)c1c(C)oc2ncnc(Nc3ccc(OCc4cccc(F)c4)cc3)c12
Result: 107%
//
Smiles String: CCOC(=O)c1c(C)oc2ncnc(Nc3ccc(OCc4ccc(Cl)cc4)cc3)c12
Result: 83.8%
//
Smiles String: CCOC(=O)c1c(C)oc2ncnc(Nc3ccc(OCc4cccc(C)c4)cc3)c12
Result: 98%

[ask] For "Cc1cccc(Nc2ncnc3oc(C)c(C(=O)NCCO)c23)c1" , what is its reported growth at 10 µM?
[reply] 90.2%

---

system: UACC-62; assay: Growth inhibition of human UACC62 cells assessed as cell growth at 10 uM incubated for 48 hrs by sulforhodamine B assay relative to control; type: functional; settings: UACC-62, 48 h, read-out: Activity
Classify by measured growth at 10 µM: 1 if it is equal to or exceeds 80%, 0 if it is smaller.

Use the examples below as a reference point.
Smiles String: CCOC(=O)c1c(C)oc2ncnc(Nc3cccc(F)c3)c12
Group Label: 1
--
Smiles String: CCOC(=O)c1c(C)oc2ncnc(Nc3ccc(OCc4ccc(Cl)c(Cl)c4)cc3)c12
Group Label: 1
--
Smiles String: Cc1cccc(Nc2ncnc3oc(C)c(C(=O)NCCN4CCOCC4)c23)c1
Group Label: 1
--
Smiles String: CCOC(=O)c1c(C)oc2ncnc(Nc3ccc(F)cc3)c12
Group Label: 1
--
Smiles String: Cc1oc2ncnc(Nc3cccc(F)c3)c2c1C(=O)O
Group Label: 1
--
Smiles String: Cc1oc2ncnc(Nc3ccc(OCc4cccc(F)c4)c(Cl)c3)c2c1C(=O)NCCO
Group Label: 0
--
Smiles String: Cc1cccc(Nc2ncnc3oc(C)c(C(=O)NCCO)c23)c1
Group Label: 1
--
Smiles String: Cc1oc2ncnc(Nc3ccccc3)c2c1C(=O)NCCO
Group Label: 1

[ask] # bool: growth at 10 µM of "CCCNC(=O)c1c(C)oc2ncnc(Nc3cccc(Cl)c3)c12" >= 80%
[reply] 1

[ask] Okay, and "CCOC(=O)c1c(C)oc2ncnc(Nc3ccc(F)c(Cl)c3)c12" ?
[reply] 1

[ask] Okay, and "Cc1oc2ncnc(Nc3cccc(F)c3)c2c1C(=O)NCCO" ?
[reply] 1

[ask] Okay, and "CCOC(=O)c1c(C)oc2ncnc(Nc3ccc(OCc4ccc(Cl)cc4)cc3)c12" ?
[reply] 1

[ask] Okay, and "Cc1oc2ncnc(Nc3cccc(Cl)c3)c2c1CO" ?
[reply] 0

---

test system: SR; test: Growth inhibition of human SR cells assessed as cell growth at 10 uM incubated for 48 hrs by sulforhodamine B assay relative to control; type: functional; settings: read-out: Activity
Please provide measured growth at 10 µM for the entries that follow.
Numbers only, in %.

Worked cases, growth at 10 µM given:
Smiles String: CCOC(=O)c1c(C)oc2ncnc(Nc3cccc(F)c3)c12
Target Or System: SR
growth at 10 µM, %: 78.6
--
Smiles String: Cc1cccc(Nc2ncnc3oc(C)c(C(=O)NCCO)c23)c1
Target Or System: SR
growth at 10 µM, %: 90.8
--
Smiles String: CCCNC(=O)c1c(C)oc2ncnc(Nc3cccc(Cl)c3)c12
Target Or System: SR
growth at 10 µM, %: 86
--
Smiles String: CCOC(=O)c1c(C)oc2ncnc(Nc3ccc(F)c(Cl)c3)c12
Target Or System: SR
growth at 10 µM, %: 96.8
--
Smiles String: CCOC(=O)c1c(C)oc2ncnc(Nc3ccc(OCc4cccc(F)c4)cc3)c12
Target Or System: SR
growth at 10 µM, %: 104

Kindly review the next compound as well.
[ask] # returns recorded growth at 10 µM (system: SR) for "CCOC(=O)c1c(C)oc2ncnc(Nc3ccc(OCc4ccc(Cl)cc4)cc3)c12"
[reply] 92.1

---

Please provide measured growth at 10 µM for the entries that follow.
test system: HCT-15; test: Growth inhibition of human HCT15 cells assessed as cell growth at 10 uM incubated for 48 hrs by sulforhodamine B assay relative to control; type: functional; settings: HCT-15, 48 h, read-out: Activity
Answer with the value and then the unit.

Worked cases, growth at 10 µM given:
Smiles String: CCOC(=O)c1c(C)oc2ncnc(Nc3ccc(F)c(Cl)c3)c12
Result: 112%
//
Smiles String: CCOC(=O)c1c(C)oc2ncnc(Nc3ccc(OCc4ccc(Cl)cc4)cc3)c12
Result: 108%
//
Smiles String: Cc1cccc(Nc2ncnc3oc(C)c(C(=O)NCCO)c23)c1
Result: 93.7%

Kindly review the next compound as well.
[ask] For "Cc1oc2ncnc(Nc3ccc(OCc4cccc(F)c4)c(Cl)c3)c2c1C(=O)NCCO" , what is its reported growth at 10 µM?
[reply] 61.1%

---

Please provide measured growth at 10 µM for the entries that follow.
tested on: KM12; test: Growth inhibition of human KM12 cells assessed as cell growth at 10 uM incubated for 48 hrs by sulforhodamine B assay relative to control; assay type: functional; details: KM12, 48 h, read-out: Activity
Answers are plain numbers, in %.

Smiles String: Cc1oc2ncnc(Nc3cccc(F)c3)c2c1C(=O)O
growth at 10 µM [%]: 102
//
Smiles String: Cc1oc2ncnc(Nc3cccc(F)c3)c2c1C(=O)NCCO
growth at 10 µM [%]: 97.9
//
Smiles String: CCOC(=O)c1c(C)oc2ncnc(Nc3ccc(OCc4cccc(C)c4)cc3)c12
growth at 10 µM [%]: 96.1
//
Smiles String: Cc1oc2ncnc(Nc3ccc(OCc4cccc(F)c4)c(Cl)c3)c2c1C(=O)NCCO
growth at 10 µM [%]: 68.9
//
Smiles String: CCOC(=O)c1c(C)oc2ncnc(Nc3ccc(F)c(Cl)c3)c12
growth at 10 µM [%]: 104
//
Smiles String: CCOC(=O)c1c(C)oc2ncnc(Nc3ccc(OCc4ccc(Cl)c(Cl)c4)cc3)c12
growth at 10 µM [%]: 102

Kindly review the next compound as well.
[ask] For "Cc1cccc(Nc2ncnc3oc(C)c(C(=O)NCCN4CCOCC4)c23)c1" , what is its reported growth at 10 µM?
[reply] 94.6
